# ASSAY DETAILS: antimalarial activity against Dd2 strain (AID 2302);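 also: 0% = DMSO untreated growth and 100% = chloroquine plus artemisinin killed control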
# MEASUREMENT PARAMETERS: P. falciparum Dd2 in RBCs, LDH growth readout, 72 h; at 2 µM; hits give high values
Residues, ends and D or L forms follow the SMILES beside them. *: point of attachment. Boc = CC(C)(C)OC(=O)*
Give growth inhibition for every item shown.
Give bare numbers, in %.

[
  {
    "COMPOUND": "COC(=O)CC[C@H](NC(=O)[C@H](C)NC(=O)OC(C)(C)C)C(=O)OC (Boc-Ala-Glu(OMe)-OMe)",
    "REPORTED": 0
  },
  {
    "COMPOUND": "CCCCN(Cc1cnccc1-c1ccc(Br)cc1)c1ccc(C(O)(C(F)(F)F)C(F)(F)F)cc1",
    "REPORTED": 45
  },
  {
    "COMPOUND": "CC(C)(C)c1cc(C(=O)N2CCN(c3nccnc3C#N)CC2)n(Cc2ccccc2)n1",
    "REPORTED": 93
  }
]

Consider the additional compound presented here.
Q: Entry under review: Cc1c(F)cc(C(=O)NC2CC2)cc1-c1ccc2c(cnn2S(=O)(=O)c2ccc(Cl)s2)c1 . Reported growth inhibition?
Ans: 50

###

# ASSAY DETAILS: inhibition of 3D7 malaria parasite growth – strain 3D7 (AID 2306);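 also: 0% = DMSO wells and 100% = chloroquine plus artemisinin control wells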
# MEASUREMENT PARAMETERS: P. falciparum 3D7 erythrocytic growth, LDH absorbance, 72 h; at 2 µM; hits give high values
PROPERTY MEASURED: growth inhibition (%)
Give bare numbers, in %.

[
  {
    "SMILES REPR": "O=C(Nc1ccc(Cl)cc1)Nc1ccc(-c2csc(-c3nc4ccccc4[nH]3)c2)cc1",
    "growth inhibition, %": 90
  },
  {
    "SMILES REPR": "CN(C)CCOc1ccc(NC(=O)NC(C)(C)c2nc(-c3ccc(Cl)c(O)c3)c(-c3ccncc3)[nH]2)cc1",
    "growth inhibition, %": 98
  },
  {
    "SMILES REPR": "O=C(Nc1ccc(-c2ccccc2)cc1)Nc1cccc(Cn2nc(Cl)c(N3CCCNCC3)cc2=O)c1",
    "growth inhibition, %": 101
  },
  {
    "SMILES REPR": "CCN(CC)C(=O)c1cccc(/C=C/c2ccc(-c3c(C)[nH]c(C)c(Cl)c3=O)cc2)c1",
    "growth inhibition, %": 96
  }
]

Let us move to another entry and its growth inhibition.
Q: Quick one: growth inhibition of COc1ccc(-c2nonc2NC(=O)c2ccc(OC(C)C)cc2)cc1OC ?
Ans: 100

###

# TGT: Calcium-dependent protein kinase 1 (Plasmodium falciparum (isolate 3D7))
# ASSAY DETAILS: PfCDPK1 kinase inhibitors, biochemical, TCAMS library (AID 1159585);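 also: inhibitors leave more ATP so luminescence rises with inhibition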
# MEASUREMENT PARAMETERS: recombinant PfCDPK1, Kinase-Glo ATP depletion luminescence
Potency and affinity values are given separately. Calls of active or inactive are those of the source. The limit is not given here; nearly all actives have IC50 up to about 0.98 µM.
PROPERTY MEASURED: outcome

Record excerpt, results attached:
[
  {
    "MOLECULE": "O=C(Nc1cccc(CN2CCN(C(=O)c3ccccc3)CC2)c1)c1cccs1",
    "outcome": "inactive"
  },
  {
    "MOLECULE": "CN(C(=O)/C=C/c1c(Cl)cccc1Cl)C1CCN(CCCCCNC(=O)/C=C/c2ccc(Cl)c(Cl)c2)CC1",
    "outcome": "inactive"
  },
  {
    "MOLECULE": "CC(C)Nc1cc(C(=O)N[C@@H](Cc2ccccc2)[C@H](O)CNC(C)(C)c2cccc(C(F)(F)F)c2)cc(N2CCCCS2(=O)=O)c1",
    "outcome": "inactive"
  },
  {
    "MOLECULE": "CCC(COCc1ccc(Cl)cc1)N(C)CCN(C)C(CC)COCc1ccc(Cl)cc1 (centres undefined)",
    "outcome": "inactive"
  },
  {
    "MOLECULE": "Cc1cc(OCCCN2CCCCC2)ccc1NC(=O)COc1ccc(Cl)cc1C(=O)c1cc(C#N)cc(C(F)(F)F)c1",
    "outcome": "inactive"
  },
  {
    "MOLECULE": "CN1CCC(c2ccc(NC(=O)c3ccc(-c4cccc(C(F)(F)F)c4)o3)cc2)CC1",
    "outcome": "inactive"
  }
]

Provide the reported outcome of each entry below, same order.
1. CC(C)(C)c1ccc(CNC(=O)/C=C/c2ccc(CNC3CCNCC3)cc2)cc1
2. Cc1ccc(-n2cc(CNCCc3ncc(C)[nH]3)c(-c3ccc(F)cc3)n2)cc1
3. Fc1ccc2nc(-c3cccc(-c4ccc(CN5CCC(CCN6CCCCC6)CC5)cc4)c3)[nH]c2c1
4. COc1cc2c(cc1OC)CN(CCc1ccc(NC(=O)c3cc4cc(OC(F)(F)F)ccc4[nH]3)cc1)CC2
5. COc1ccccc1C(=O)Nc1ccc(Nc2nc(C)cc(N3CCOCC3)n2)cc1
6. Fc1ccc(NC(=S)NN=Cc2ccccn2)cc1
7. Clc1ccc(-n2cnc3c(Nc4ccc(Oc5ccccc5)cc4)ncnc32)cc1Cl
8. O=C(c1ccc(F)cc1)N1CCOC(CCN2CCC(c3ccccc3)CC2)(c2ccc(Cl)c(Cl)c2)C1 (centres undefined)

Ans:
inactive
inactive
inactive
inactive
inactive
inactive
inactive
inactive

Look at each molecule and report its outcome.
1. c1ccc(CN2CCC(Nc3ccc(-c4cn[nH]c4-c4ccccn4)nc3)CC2)cc1
2. CN1CCN(c2ccc(-c3cc(-c4ccncc4)c(-c4ccc(Cl)c(O)c4)o3)cc2)CC1

Ans:
inactive
inactive

Could you report outcome for every entry in the following list?
1. Fc1ccc2nc(-c3ccc(-c4ccc(CN5CCN(c6cnccn6)CC5)cc4)s3)[nH]c2c1
2. COc1cc(CCN=C(N)/C=C/c2ccc(Cl)cc2)ccc1Cl
3. Nc1nc(-c2ccccn2)nc(-n2nc(-c3cccc(C(F)(F)F)c3)cc2N)n1
4. CCCn1c(Sc2ccc(C#N)c([N+](=O)[O-])c2)nnc1-c1ccc(OC)cc1
5. Cc1cc(N[C@@H](Cc2ccccc2)C(=O)NCCOc2ccccc2)nc(NCc2ccccc2C)n1

Ans:
inactive
inactive
inactive
inactive
inactive

Below are some molecules; for each one, tell me its outcome.
1. CN(C)c1cc(NC(=O)Nc2ccc(SC(F)(F)F)cc2)c2ccccc2n1
2. CCNc1cc(C(=O)N[C@@H](Cc2ccccc2)[C@H](O)CNC23CC4CC(CC(C4)C2)C3)cc(N2CCCCS2(=O)=O)c1

Ans:
inactive
inactive

###

# ASSAY DETAILS: inhibition of 3D7 malaria parasite growth – strain 3D7 (AID 2306);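 also: 0% = DMSO wells and 100% = chloroquine plus artemisinin control wells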
# MEASUREMENT PARAMETERS: P. falciparum 3D7 erythrocytic growth, LDH absorbance, 72 h; at 2 µM; hits give high values
So I've got a bunch of compounds here, and I need their growth inhibition values.
Answers are plain numbers, in %.

Here is how some compounds turned out for growth inhibition.
[
  {
    "COMPOUND": "CC(C)CNCc1cccc(-c2ccc(CN(CCCN3CCN(C)CC3)C(=O)/C=C/c3ccccc3)cc2)c1",
    "PROPERTY MEASURED": "growth inhibition",
    "REPORTED": 92
  },
  {
    "COMPOUND": "COc1ccc2nccc([C@@H](O)CN3CCC(NCc4cc5ccccc5nn4)CC3)c2c1",
    "PROPERTY MEASURED": "growth inhibition",
    "REPORTED": 94
  }
]

Value sought for every listed compound: growth inhibition.
1. CCSc1nc2sc3c(c2c(=O)n1-c1ccccc1)CCN(C)C3
2. O=C(N[C@H]1CCN(Cc2ccc(OCCCN3CCCCC3)cc2)C1)c1cc(Cl)cc(Cl)c1
3. OCCCCCCN=Cc1[nH]c(=S)sc1O
4. CC(C)(C)c1ccc2nc(-c3ccc(/C=C/C(=O)NC4CCN(Cc5ccccc5)CC4)cc3)[nH]c2c1

Ans:
[83, 99, 91, 101]

Would you be so kind as to report growth inhibition for each listed record?
1. COc1cc(NC(=O)N2CCc3ccc(OCCN(C(C)C)C(C)C)cc32)cc(C(F)(F)F)c1
2. Cc1cc(=O)c(C2CCC(c3ccc(Cl)cc3)CC2)c(C)[nH]1 (stereo not given)
3. O=C(CNC1=NCCN1)Nc1ccc(NC(=O)Nc2ccc(NC(=O)CNC3=NCCN3)cc2)cc1

Ans:
1. 102
2. 88
3. 90

Q: Request the reported growth inhibition associated with Cc1cccc(C(=O)NCCCN2CCC(NC(=O)/C=C/c3ccc(Cl)c(Cl)c3)CC2)c1
Ans: 98

###

# TGT: L-lactate dehydrogenase (Plasmodium falciparum (isolate CDC / Honduras)) (UniProt Q27743)
# Sequence (Q27743 whole entry, looked up): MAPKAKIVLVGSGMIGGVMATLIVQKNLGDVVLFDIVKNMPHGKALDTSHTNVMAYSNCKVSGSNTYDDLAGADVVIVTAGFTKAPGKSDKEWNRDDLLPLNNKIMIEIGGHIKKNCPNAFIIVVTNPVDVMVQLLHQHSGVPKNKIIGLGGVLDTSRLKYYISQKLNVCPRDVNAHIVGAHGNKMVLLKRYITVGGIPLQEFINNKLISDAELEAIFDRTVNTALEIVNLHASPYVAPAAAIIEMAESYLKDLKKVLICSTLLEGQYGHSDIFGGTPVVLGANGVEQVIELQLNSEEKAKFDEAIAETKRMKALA
# ASSAY DETAILS: PfLDH activity inhibition – cell lysate, 3D7 strain, counter-screen for P. falciparum growth inhibition project (AID 2304);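 also: 0% = vehicle and 100% = reference inhibitor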
# MEASUREMENT PARAMETERS: P. falciparum 3D7 crude extract, LDH APAD/NBT absorbance; at 2 µM; hits give high values
PROPERTY MEASURED: inhibition (%)
Give bare numbers, in %.

Consider the following illustrative entries.
[
  {
    "COMPOUND": "CO/C(=C\\C=C\\c1cc2cc(Cl)c(Cl)cc2[nH]1)C(=O)NCC(C)(C)CN(C)C",
    "MEASURE UNIT": "%",
    "REPORTED": 1
  },
  {
    "COMPOUND": "COc1ccccc1-c1cccc(Nc2c(Nc3ccc(Cl)cc3)c(=O)c2=O)c1",
    "MEASURE UNIT": "%",
    "REPORTED": 0
  },
  {
    "COMPOUND": "CCOc1ccc(OCC(=O)Nc2nc(-c3ccc(OC)cc3)c(C)s2)cc1",
    "MEASURE UNIT": "%",
    "REPORTED": -8
  }
]

Could I get inhibition for every one of these entries?
1. CCCCCN1CCCC1CNS(=O)(=O)c1cccc(C(=O)Nc2cccc(C#N)c2)c1 (stereo not given)
2. O=C(/C=C/c1ccc(Cl)c(Cl)c1)NCCCCCN1CCCN(C(=O)Nc2ccc(Cl)c(C(F)(F)F)c2)CC1

Ans:
[-1, 4]
